test_system: RORγ (UniProt P51449)
assay_summary: RORγ Gal4 Reporter Gene Assay in 293T cells (firefly and renilla luciferase)
Type: cell-based, human
test_context: third value of the cell; Gal4 reporter gene assay in 293T cells, renilla normalised luciferase
measured_endpoint: pIC50 (REN)
Number only, no unit.

> print(dat)
                                   molecule            test.system  measured.endpoint  observed
1  CC(C)(C)NS(=O)(=O)c1ccc(-c2cc(C(=O)NCCC(C)(C)C(=O)O)c(F)n2CC2CCCCC2)cc1C(F)(F)F  RORγ (UniProt P51449)        pIC50 (REN)       6.9
2  Cc1c(C(=O)NC2CCOCC2)cc(-c2ccc(S(=O)(=O)NC3(C#N)CC3)c(C(F)(F)F)c2)n1CC1CCCCC1  RORγ (UniProt P51449)        pIC50 (REN)       7.7
3  CC(C)(C)NS(=O)(=O)c1ccc(-c2cc(C(=O)N[C@H]3C[C@H](C(=O)O)C3)c(F)n2CC2CCCCC2)cc1C(F)(F)F  RORγ (UniProt P51449)        pIC50 (REN)       6.2
4  Cc1c(C(=O)NCC2(C(N)=O)CCOCC2)cc(-c2cc(C(C)(C)O)cc(C3(C)CC3)c2)n1CC1CCCCC1  RORγ (UniProt P51449)        pIC50 (REN)       7.6
5  Cc1c(C(=O)NC2COC2)cc(-c2cc(C(C)(C)C)cc(C(C)(C)C)c2)n1C(C)C1CCCCC1 (centres unmarked)  RORγ (UniProt P51449)        pIC50 (REN)       6.9

Measured pIC50 (REN), COC(=O)C(C)(C)CCNC(=O)c1cc(-c2cc(C(C)(C)C)cc(C3(C)CC3)c2)n(CC2CCCCC2)c1C : 6.7

According to the records, this molecule Cc1c(C(=O)NC2CCOCC2)cc(-c2ccc(S(=O)(=O)N3CCCC3(C)C)c(C(F)(F)F)c2)n1CC1CCCCC1 displays pIC50 (REN) of 7.2

GET /value?item= Cc1c(C(=O)NCC2(O)CCSCC2)cc(-c2cc(C(C)(C)C)c3c(c2)C2(CCO3)CC2)n1CC1CCCCC1 &field=pIC50 (REN) returns 7.1

----------
test_system: RORγ ligand binding domain (LBD) (Homo sapiens)
Construct: made in house; host or cells: E. coli BL-21 (BL3), vector pDEST15
Sequence (P51449 269-508 limits assumed): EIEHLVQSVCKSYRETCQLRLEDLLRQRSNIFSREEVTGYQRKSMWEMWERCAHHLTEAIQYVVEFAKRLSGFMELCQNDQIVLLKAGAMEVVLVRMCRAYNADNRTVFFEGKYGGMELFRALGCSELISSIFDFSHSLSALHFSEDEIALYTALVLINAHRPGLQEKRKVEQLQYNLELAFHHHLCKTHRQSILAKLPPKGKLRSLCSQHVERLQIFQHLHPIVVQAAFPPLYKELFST
assay_summary: TR-FRET Activity Assay (ligand sensing, RORγ-LBD / coactivator peptide interaction, LANCE)
Assay type: biochemical
test_context: first value of the cell FRET/FF/REN; TR-FRET activity assay; read-out: pIC50 (FRET) (converted)
Quick reference for IC50 among some compounds
Please make sure the unit comes right after the number.

Below: 3 compounds and their reported IC50.
> print(dat)
                                   compound  measured.endpoint  observed
1  Cc1c(C(=O)NCC(C)(C)CC(=O)O)cc(-c2cc(C(C)(C)C)c3c(c2)C2(CCO3)CC2)n1CC1CCCCC1               IC50    794 nM
2  CC(C)(C)NS(=O)(=O)c1ccc(-c2cc(C(=O)NCC3(O)CCOCC3)c(C(F)(F)F)n2CC2CCCCC2)cc1C(C)(C)C               IC50  12600 nM
3  Cc1c(C(=O)NCCCCCO)cc(-c2ccc(S(=O)(=O)NC(C)(C)C)c(C(C)(C)C)c2)n1CC1CCCCC1               IC50    501 nM

Turning now to a further record.
For this compound ( Cc1c(C(=O)NC2CC23CCOCC3)cc(-c2ccc(S(=O)(=O)NC(C)(C)C)c(C(C)(C)C)c2)n1CC1CCCCC1 (stereo not shown) ), measured IC50 is 501 nM
